- protocolDescription: LD50 (acute toxicity)
- conditionParameters: in vivo
readoutLabel: LD50

smilesRecord | reportedMeasurement
CCN(CC)Cc1cnc(C)s1 | 80 to 100 mg/kg
Cc1ncc(CN2CCCCC2)s1 | 7 to 8 mg/kg

--- query ---
Query string: Look up LD50: Cc1ncc(CN2CCCC2)s1
Result string: 7 to 8 mg/kg

* * *

- Tested on: Diazepam cell receptor
- protocolDescription: Central nervous system activity: adhesion to specific cell receptor surfaces (diazepam cell receptor)
- Assay type: binding
Catalogue of Diazepam cell receptor adhesion readings, one per entry.
Report the figure in mM without appending any unit label.

Consider the worked cases shown below.
smilesRecord | assayedTarget | unitInfo | Diazepam cell receptor adhesion
Cc1ncc(CN2CCCCC2)s1 | Diazepam cell receptor | mM | 1.0
CCN(CC)Cc1cnc(C)s1 | Diazepam cell receptor | mM | 5.5
Cc1ncc(C(=O)N2CCCC2)s1 | Diazepam cell receptor | mM | 0.55

--- query ---
Query string: Look up Diazepam cell receptor adhesion: Cc1ncc(CN2CCCC2)s1
Result string: 4.4

* * *

- System: Diazepam cell receptor
- protocolDescription: Central nervous system activity: adhesion to specific cell receptor surfaces (diazepam cell receptor)
- Format: binding
readoutLabel: Diazepam cell receptor adhesion (mM)
Report the figure in mM without appending any unit label.

Consider the worked cases shown below.
molecule | assayedTarget | Diazepam cell receptor adhesion (mM)
Cc1ncc(C(=O)N2CCCCC2)s1 [Example 2, 2-methyl-5-(piperidincrcarbonyl)thiazole] | Diazepam cell receptor | 0.49
Cc1ncc(C(=O)N2CCOCC2)s1 [Example 3, 2-methyl-S-(morpholinocarbonyl)thiazole] | Diazepam cell receptor | 1.0
CCN(CC)C(=O)c1cnc(C)s1 [Example 6] | Diazepam cell receptor | 3.2

--- query ---
Query string: Look up Diazepam cell receptor adhesion: Cc1ncc(CN2CCOCC2)s1 [Example 20, 2-methyl-5-(morpholinomethyl)thiazole]
Result string: 11

Hello, the source for this data is patent EP0034481A1, in case you need it.
